Test: In vivo biodistribution in mice
Parameters: species or system normal CD-1 male mice
Settings: iv, 2 min post injection
assay endpoint: Biodistribution: Bone (% dose/g)

compound	assay endpoint	number
O=C([O-])CN(CCN(CC(=O)[O-])Cc1cc(CCC(=O)O)ccc1[O-])Cc1cc(CCC(=O)O)ccc1[O-].[68Ga+3] [[^68Ga]HBED-CC, reference compound]	Biodistribution: Bone	1.85
O=C([O-])CN(CCN(CC(=O)[O-])Cc1cc(CCC(=O)NC(P(=O)(O)O)P(=O)(O)O)ccc1[O-])Cc1cc(CCC(=O)NC(P(=O)(O)O)P(=O)(O)O)ccc1[O-].[68Ga+3] [[^68Ga]2]	Biodistribution: Bone	11.0
O=C([O-])CN(CCN(CC(=O)[O-])Cc1cc(CCC(=O)NC(P(=O)(O)O)P(=O)(O)O)ccc1[O-])Cc1cc(CCC(=O)NCCCNC(=O)CCc2ccc(O)c(CN(CCN(CC(=O)O)Cc3cc(CCC(=O)NC(P(=O)(O)O)P(=O)(O)O)ccc3O)CC(=O)O)c2)ccc1[O-].[68Ga+3] [[^68Ga]3]	Biodistribution: Bone	4.17
O=C([O-])CN(CCN(CC(=O)[O-])Cc1cc(CCC(=O)N[C@@H](CCC(=O)O)C(=O)O)ccc1[O-])Cc1cc(CCC(=O)NC(P(=O)(O)O)P(=O)(O)O)ccc1[O-].[68Ga+3] [[^68Ga]1f]	Biodistribution: Bone	8.62
O=C([O-])CN(CCN(CC(=O)[O-])Cc1cc(CCC(=O)NC(P(=O)(O)O)P(=O)(O)O)ccc1[O-])Cc1cc(CCC(=O)NCC(=O)O)ccc1[O-].[68Ga+3] [[^68Ga]1c]	Biodistribution: Bone	8.40

----------
Catalogue of bone to muscle ratio values
Assay: In vivo biodistribution in mice
Parameters: species or system normal CD-1 male mice
Conditions: iv, 2 min

molecule	bone to muscle ratio
O=C([O-])CN(CCN(CC(=O)[O-])Cc1cc(CCC(=O)NC(P(=O)(O)O)P(=O)(O)O)ccc1[O-])Cc1cc(CCC(=O)NCCNC(=O)CN2CCN(CC(=O)O)CCN(CC(=O)O)CCN(CC(=O)O)CC2)ccc1[O-].[68Ga+3] [[^68Ga]1h]	4.3
O=C([O-])CN(CCN(CC(=O)[O-])Cc1cc(CCC(=O)N[C@@H](CCC(=O)O)C(=O)O)ccc1[O-])Cc1cc(CCC(=O)NC(P(=O)(O)O)P(=O)(O)O)ccc1[O-].[68Ga+3] [[^68Ga]1f]	4
[18F-].[Na+] [[^18F]NaF, reference compound]	7.2
O=C([O-])CN(CCN(CC(=O)[O-])Cc1cc(CCC(=O)NC(P(=O)(O)O)P(=O)(O)O)ccc1[O-])Cc1cc(CCC(=O)NCCCCCC(=O)NCCCC[C@H](NC(=O)N[C@@H](CCC(=O)O)C(=O)O)C(=O)O)ccc1[O-].[68Ga+3] [[^68Ga]1g]	3.71
O=C([O-])CN(CCN(CC(=O)[O-])Cc1cc(CCC(=O)NC(P(=O)(O)O)P(=O)(O)O)ccc1[O-])Cc1cc(CCC(=O)O)ccc1[O-].[68Ga+3] [[^68Ga]1a]	4.8

----------
# maps each entry to its Biodistribution: Lung
Assay: In vivo biodistribution in mice
Set-up: species or system normal CD-1 male mice
Conditions: iv, 60 min (1 hr) post injection
assay endpoint: Biodistribution: Lung (% dose/g)

compound	number
O=C([O-])CN(CCN(CC(=O)[O-])Cc1cc(CCC(=O)NC(P(=O)(O)O)P(=O)(O)O)ccc1[O-])Cc1cc(CCC(=O)NCC(=O)O)ccc1[O-].[68Ga+3] [[^68Ga]1c]	0.42
O=C([O-])CN(CCN(CC(=O)[O-])Cc1cc(CCC(=O)NC(P(=O)(O)O)P(=O)(O)O)ccc1[O-])Cc1cc(CCC(=O)NCCCCCC(=O)NCCCC[C@H](NC(=O)N[C@@H](CCC(=O)O)C(=O)O)C(=O)O)ccc1[O-].[68Ga+3] [[^68Ga]1g]	0.58
C[C@H](NC(=O)CCc1ccc([O-])c(CN(CCN(CC(=O)[O-])Cc2cc(CCC(=O)NC(P(=O)(O)O)P(=O)(O)O)ccc2[O-])CC(=O)[O-])c1)C(=O)O.[68Ga+3] [[^68Ga]1d]	0.17
O=C([O-])CN(CCN(CC(=O)[O-])Cc1cc(CCC(=O)NC(P(=O)(O)O)P(=O)(O)O)ccc1[O-])Cc1cc(CCC(=O)NCCNC(=O)CN2CCN(CC(=O)O)CCN(CC(=O)O)CCN(CC(=O)O)CC2)ccc1[O-].[68Ga+3] [[^68Ga]1h]	0.14
O=C([O-])CN(CCN(CC(=O)[O-])Cc1cc(CCC(=O)NC(P(=O)(O)O)P(=O)(O)O)ccc1[O-])Cc1cc(CCC(=O)NC2C(O)OC(CO)C(O)C2O)ccc1[O-].[68Ga+3] (centres unmarked) [[^68Ga]1b]	0.96

----------
Assay: In vivo biodistribution in mice
Set-up: species or system normal CD-1 male mice
Conditions: iv, 30 min (0.5 hr) post injection
A collection of compounds and their measured Biodistribution: Muscle
assay endpoint: Biodistribution: Muscle (% dose/g)

compound	assay endpoint	result units	number
O=C([O-])CN(CCN(CC(=O)[O-])Cc1cc(CCC(=O)N[C@@H](CCC(=O)O)C(=O)O)ccc1[O-])Cc1cc(CCC(=O)NC(P(=O)(O)O)P(=O)(O)O)ccc1[O-].[68Ga+3] [[^68Ga]1f]	Biodistribution: Muscle	% dose/g	0.23
O=C([O-])CN(CCN(CC(=O)[O-])Cc1cc(CCC(=O)NC(P(=O)(O)O)P(=O)(O)O)ccc1[O-])Cc1cc(CCC(=O)NCCCNC(=O)CCc2ccc(O)c(CN(CCN(CC(=O)O)Cc3cc(CCC(=O)NC(P(=O)(O)O)P(=O)(O)O)ccc3O)CC(=O)O)c2)ccc1[O-].[68Ga+3] [[^68Ga]3]	Biodistribution: Muscle	% dose/g	0.68
O=C([O-])CN(CCN(CC(=O)[O-])Cc1cc(CCC(=O)NC(P(=O)(O)O)P(=O)(O)O)ccc1[O-])Cc1cc(CCC(=O)O)ccc1[O-].[68Ga+3] [[^68Ga]1a]	Biodistribution: Muscle	% dose/g	0.17
C[C@H](NC(=O)CCc1ccc([O-])c(CN(CCN(CC(=O)[O-])Cc2cc(CCC(=O)NC(P(=O)(O)O)P(=O)(O)O)ccc2[O-])CC(=O)[O-])c1)C(=O)O.[68Ga+3] [[^68Ga]1d]	Biodistribution: Muscle	% dose/g	0.24
O=C(O)CN1CCN(CC(=O)O)CCN(CC(=O)NC(P(=O)(O)O)P(=O)(O)O)CCN(CC(=O)O)CC1.[68Ga] [[^68Ga]BPAMD, reference compound]	Biodistribution: Muscle	% dose/g	0.55

----------
Test: In vivo biodistribution in mice
Parameters: species or system normal CD-1 male mice
Settings: iv, 30 min (0.5 hr) post injection
assay endpoint: Biodistribution: Bone (% dose/g)

compound	number
O=C([O-])CN(CCN(CC(=O)[O-])Cc1cc(CCC(=O)NC(P(=O)(O)O)P(=O)(O)O)ccc1[O-])Cc1cc(CCC(=O)NC(P(=O)(O)O)P(=O)(O)O)ccc1[O-].[68Ga+3] [[^68Ga]2]	18.8
O=C([O-])CN(CCN(CC(=O)[O-])Cc1cc(CCC(=O)NC(P(=O)(O)O)P(=O)(O)O)ccc1[O-])Cc1cc(CCC(=O)NCC(=O)O)ccc1[O-].[68Ga+3] [[^68Ga]1c]	11.3
[18F-].[Na+] [[^18F]NaF, reference compound]	24.2
O=C([O-])CN(CCN(CC(=O)[O-])Cc1cc(CCC(=O)N[C@@H](CCC(=O)O)C(=O)O)ccc1[O-])Cc1cc(CCC(=O)NC(P(=O)(O)O)P(=O)(O)O)ccc1[O-].[68Ga+3] [[^68Ga]1f]	16.8
O=C([O-])CN(CCN(CC(=O)[O-])Cc1cc(CCC(=O)NC(P(=O)(O)O)P(=O)(O)O)ccc1[O-])Cc1cc(CCC(=O)NCCNC(=O)CN2CCN(CC(=O)O)CCN(CC(=O)O)CCN(CC(=O)O)CC2)ccc1[O-].[68Ga+3] [[^68Ga]1h]	12.1
O=C([O-])CN1CCN(CC(=O)[O-])CCN(CC(=O)NCCNC(=O)CCc2ccc(O)c(CN(CCN(CC(=O)O)Cc3cc(CCC(=O)NC(P(=O)(O)O)P(=O)(O)O)ccc3O)CC(=O)O)c2)CCN(CC(=O)[O-])CC1.[177Lu+3] [[^177Lu]1h]	12.4
O=C([O-])CN(CCN(CC(=O)[O-])Cc1cc(CCC(=O)NC(P(=O)(O)O)P(=O)(O)O)ccc1[O-])Cc1cc(CCC(=O)NC2C(O)OC(CO)C(O)C2O)ccc1[O-].[68Ga+3] (centres unmarked) [[^68Ga]1b]	16.6
O=C(O)CN1CCN(CC(=O)O)CCN(CC(=O)NC(P(=O)(O)O)P(=O)(O)O)CCN(CC(=O)O)CC1.[68Ga] [[^68Ga]BPAMD, reference compound]	10.5
